TEST_SYSTEM: Dimer of Gag-Pol polyprotein [489-587] (Human immunodeficiency virus 1, UniProt P12497)
Construct: 489-587
METHOD_SUMMARY: Protease Inhibition Assay
TEST_CONDITIONS: pH 5; 30 °C
Protocol: A fluorimetric assay was used to determine the effects of the inhibitors on HIV-1 protease. This assay used an internally quenched fluorescent peptide substrate. The measurements were performed in 96-well plates with a Fluoroscan plate reader. Excitation and emission wavelengths were 355 nm and 500 nm, respectively.
Below, each of the compounds is paired with its reported Ki value.
Form entry: value (nM) — number only.

Request: Quick check: Ki of O=C(N[C@H]1c2ccccc2C[C@H]1O)[C@H](OCc1ccccc1)[C@H](O)[C@@H](O)[C@@H](OCc1ccccc1)C(=O)N[C@H]1c2ccccc2C[C@H]1O ?
Response: 0.6

Request: Could you do the same for O=C(N[C@H]1c2ccccc2C[C@H]1O)[C@H](CCc1ccccc1)[C@@H](O)[C@H](O)[C@@H](CCc1ccccc1)C(=O)N[C@H]1c2ccccc2C[C@H]1O , please?
Response: 1.1

Request: Could you do the same for O=C(N[C@H]1c2ccccc2C[C@H]1O)[C@H](CCc1ccccc1)[C@H](O)[C@H](O)[C@@H](CCc1ccccc1)C(=O)N[C@H]1c2ccccc2C[C@H]1O , please?
Response: 28
